Each recorded value in this set is attributed to ChEMBL document CHEMBL5537169.

Each entry below carries its reported Cmax.
- testMethodNotes: Cmax in Sprague-Dawley rat at 10 mg/kg,po measured at 0.083 to 24 hrs post administration by LC-MS/MS analysis
- Type: ADME, organism-based
- testContext: Sprague-Dawley, in vivo, time 0.083-24 hrs, read-out: Cmax

querySmiles | Cmax (ng/mL)
COCCCOc1cc2c(nc1OC)-c1cc(=O)c(C(=O)O)cn1[C@](C)(C(C)(C)C)C2 | 274
COCCCOc1cc2c(nc1OC)-c1cc(=O)c(C(=O)O)cn1[C@](C)(C(C)C)C2 | 965
COCCCOc1cc2c(cc1OC)-c1cc(=O)c(C(=O)O)cn1[C@H](C(C)C)C2 | 1190
COCCCOc1cc2c(nc1OC)-c1cc(=O)c(C(=O)O)cn1[C@H](C(C)C)C2 | 1540
